Assay System: T1, rat neuropeptide FF receptor (NPFF1) (rat, UniProt Q9EP86 1-432)
T1 construct: also the native receptor in rat brain sections (autoradiography); also called rat NPFF1; SNORF2
T1 sequence (Q9EP86 whole entry): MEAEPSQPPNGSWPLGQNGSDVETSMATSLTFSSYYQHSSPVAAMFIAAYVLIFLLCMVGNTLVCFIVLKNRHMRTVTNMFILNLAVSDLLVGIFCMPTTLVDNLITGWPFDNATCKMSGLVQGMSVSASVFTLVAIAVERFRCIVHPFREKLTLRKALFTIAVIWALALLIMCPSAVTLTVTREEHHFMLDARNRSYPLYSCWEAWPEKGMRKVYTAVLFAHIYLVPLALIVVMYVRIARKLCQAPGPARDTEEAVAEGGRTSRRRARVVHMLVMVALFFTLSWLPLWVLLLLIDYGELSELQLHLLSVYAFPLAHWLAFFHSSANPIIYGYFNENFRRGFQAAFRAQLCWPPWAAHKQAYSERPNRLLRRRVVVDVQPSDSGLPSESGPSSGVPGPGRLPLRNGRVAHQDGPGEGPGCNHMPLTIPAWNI
Assay Method Text: radioligand saturation binding, transiently transfected HEK-293 cells
Non-standard residues stand in square brackets, D forms with d. No end group written: not given here. *: point of attachment. NMeF = CN[C@@H](Cc1ccccc1)C(=O)O; 125I = [125I]*
Result Type: Kd (nM)

Binder	Measurement
[dY](125I)L[NMeF]QPQRF-NH2 [[^125I][D-Tyr^1-(NMe)Phe^3]NPFF]	0.65
